# SYSTEM_TESTED: Fuc(a1-2)Gal(b1-4)GlcNAc(b1-3)Gal(b1-4)GlcNAc(b1-3)Gal(b1-4)GlcNAc
# ASSAY_SUMMARY: glycan array binding signal (z-score within array); higher = stronger binding
# ASSAY_CONTEXT: glycan notation: IUPAC condensed, linker removed
This is one part of a sample in which the strongest signals are shown more often than they occur.
Attribute: glycan array binding signal (z-score)
Output: the number by itself.

* AT1G15820(NC) (Arabidopsis thaliana) (protein) MAMAVSGAVLSGLGSSFLTGGKRGATALASGVGDAIAPFSFGSLLGTQLLLMGWVESKRWVDFFNPDSQSVEWATPWSKTAENFANYTGDQGYPGGRFFDPLGLAGKNRDGVYEPDFEKLERLKLAEIKHSRLAMVAMLIFYFEAGQGKTPLGALGL | -0.439
* AT5G01260(PC)(40) (Arabidopsis thaliana), Q9LFB0 (protein) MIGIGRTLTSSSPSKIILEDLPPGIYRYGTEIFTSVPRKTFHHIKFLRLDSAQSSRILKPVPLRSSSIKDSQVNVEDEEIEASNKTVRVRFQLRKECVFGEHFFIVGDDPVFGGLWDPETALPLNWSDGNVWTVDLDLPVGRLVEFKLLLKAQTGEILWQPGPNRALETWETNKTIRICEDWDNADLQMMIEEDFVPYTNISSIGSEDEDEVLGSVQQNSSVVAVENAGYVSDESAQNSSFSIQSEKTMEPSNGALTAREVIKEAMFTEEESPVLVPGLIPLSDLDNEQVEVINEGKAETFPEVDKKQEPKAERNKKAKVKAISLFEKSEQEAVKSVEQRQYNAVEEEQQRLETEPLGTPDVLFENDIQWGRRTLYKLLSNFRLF | -0.994

Challenge: Which measured glycan array binding signal (z-score) value corresponds to rMpL (Macrolepiota procera) (protein) MSTQVSSGRTYKITNVIAGTVIDLSGEDNKSIIGYPYHSGKNQQWTFNWTGKAWTLRSASSGSYLGIEGTPAGGTRLVAVNDPFEWHIWRDEANENAFRIFVPFTNYNLDLSGYGDTTPGTPVQLWWTWEGLHQTWTIDRP ?
Response given: -0.248
